Target: JAK1 (Homo sapiens (Human), UniProt P23458)
Sequence (P23458 whole entry): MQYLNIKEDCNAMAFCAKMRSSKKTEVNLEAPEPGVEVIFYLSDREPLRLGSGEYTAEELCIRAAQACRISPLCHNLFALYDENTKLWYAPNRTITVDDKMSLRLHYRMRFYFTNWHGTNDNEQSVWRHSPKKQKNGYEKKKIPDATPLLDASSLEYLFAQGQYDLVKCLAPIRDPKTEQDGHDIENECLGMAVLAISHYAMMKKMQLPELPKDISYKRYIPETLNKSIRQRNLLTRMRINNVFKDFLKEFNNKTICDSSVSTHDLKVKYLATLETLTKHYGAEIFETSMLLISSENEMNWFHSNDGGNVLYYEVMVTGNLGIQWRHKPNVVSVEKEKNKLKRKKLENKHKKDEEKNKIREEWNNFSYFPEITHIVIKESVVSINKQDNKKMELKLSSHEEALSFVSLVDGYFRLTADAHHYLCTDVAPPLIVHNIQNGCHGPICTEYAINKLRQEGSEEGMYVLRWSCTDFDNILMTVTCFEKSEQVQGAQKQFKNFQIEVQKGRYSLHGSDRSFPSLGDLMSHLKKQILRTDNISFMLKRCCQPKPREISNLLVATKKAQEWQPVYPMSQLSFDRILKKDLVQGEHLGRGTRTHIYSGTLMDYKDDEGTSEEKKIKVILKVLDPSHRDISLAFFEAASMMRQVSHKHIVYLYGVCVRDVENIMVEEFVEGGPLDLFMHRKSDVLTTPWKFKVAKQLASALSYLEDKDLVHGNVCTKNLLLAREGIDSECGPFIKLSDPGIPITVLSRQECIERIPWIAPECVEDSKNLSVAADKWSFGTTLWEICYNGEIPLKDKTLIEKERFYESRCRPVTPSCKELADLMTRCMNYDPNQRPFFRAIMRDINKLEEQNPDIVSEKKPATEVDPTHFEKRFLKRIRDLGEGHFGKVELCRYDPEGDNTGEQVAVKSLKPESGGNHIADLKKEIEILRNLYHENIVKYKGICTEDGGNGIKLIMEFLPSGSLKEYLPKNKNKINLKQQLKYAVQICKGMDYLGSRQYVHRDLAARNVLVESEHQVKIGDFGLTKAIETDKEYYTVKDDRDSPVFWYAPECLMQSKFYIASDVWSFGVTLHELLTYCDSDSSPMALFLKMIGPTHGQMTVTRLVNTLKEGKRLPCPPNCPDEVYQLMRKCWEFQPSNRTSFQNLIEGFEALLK
Experiment: LanthaScreen JAK biochemical assay, JAK1
Settings: read-out: JAK 1 (pKi) (converted)
# Ki per entry
REPORTED_METRIC: Ki

[[record]]
molecule = "COc1cc(Nc2cc(CO)[nH]n2)nc(N(C)[C@@H]2C[C@H]3CCC[C@@H](C2)N3C(=O)OCC(C)C)n1 [Example 8]"
reported_metric = "Ki"
result = "0.1 to 1 nM"

[[record]]
molecule = "COc1cc(Nc2cc(CO)[nH]n2)nc(N[C@@H]2C[C@H]3CCC[C@@H](C2)N3Cc2ccc(C#N)nc2)n1 [Example 6]"
reported_metric = "Ki"
result = "0.1 to 1 nM"

[[record]]
molecule = "COc1cc(Nc2cc(CO)[nH]n2)nc(N[C@@H]2C[C@H]3CC[C@@H](C2)N3S(=O)(=O)c2cccnc2)n1 [Example 1-3]"
reported_metric = "Ki"
result = "1 to 10 nM"

[[record]]
molecule = "COc1cc(Nc2cc(CO)[nH]n2)nc(N[C@@H]2C[C@H]3CC[C@@H](C2)N3S(=O)(=O)N2CCC2)n1 [Example 1-1]"
reported_metric = "Ki"
result = "1 to 10 nM"


###

Experiment: Colon pharmacokinetics in rats
Settings: Sprague Dawley, rat, colon and plasma, po, 5 mg/kg
REPORTED_METRIC: Kp

[[record]]
compound = "COc1cc(Nc2cc(CO)[nH]n2)nc(N(C)[C@@H]2C[C@H]3CCC[C@@H](C2)N3S(=O)(=O)N2CC(C#N)C2)n1 [Example 2]"
result = "> 250"


###

Assay: Determination of absorption in cannulated rats
Type: in vivo, Sprague Dawley rats
Details: rat, oral, portal vein
REPORTED_METRIC: absorption at the portal vein (Fa %)

[[record]]
smiles_string = "COc1cc(Nc2cc(CO)[nH]n2)nc(N(C)[C@@H]2C[C@H]3CCC[C@@H](C2)N3S(C)(=O)=O)n1"
result = "greater than 40%"

[[record]]
smiles_string = "COc1cc(Nc2cc(CO)[nH]n2)nc(N(C)[C@@H]2C[C@H]3CCC[C@@H](C2)N3S(=O)(=O)N2CC(C#N)C2)n1"
result = "less than 25%"

[[record]]
smiles_string = "COc1cc(Nc2cc(CO)[nH]n2)nc(N(C)[C@@H]2C[C@H]3CC[C@@H](C2)N3S(=O)(=O)N2CC(C#N)C2)n1"
result = "less than 25%"

[[record]]
smiles_string = "COCCS(=O)(=O)N1[C@@H]2CCC[C@H]1C[C@H](N(C)c1nc(Nc3cc(CO)[nH]n3)cc(OC)n1)C2"
result = "greater than 40%"


###

Biological target: JAK3 (Homo sapiens (Human), UniProt P52333)
Sequence (P52333 whole entry): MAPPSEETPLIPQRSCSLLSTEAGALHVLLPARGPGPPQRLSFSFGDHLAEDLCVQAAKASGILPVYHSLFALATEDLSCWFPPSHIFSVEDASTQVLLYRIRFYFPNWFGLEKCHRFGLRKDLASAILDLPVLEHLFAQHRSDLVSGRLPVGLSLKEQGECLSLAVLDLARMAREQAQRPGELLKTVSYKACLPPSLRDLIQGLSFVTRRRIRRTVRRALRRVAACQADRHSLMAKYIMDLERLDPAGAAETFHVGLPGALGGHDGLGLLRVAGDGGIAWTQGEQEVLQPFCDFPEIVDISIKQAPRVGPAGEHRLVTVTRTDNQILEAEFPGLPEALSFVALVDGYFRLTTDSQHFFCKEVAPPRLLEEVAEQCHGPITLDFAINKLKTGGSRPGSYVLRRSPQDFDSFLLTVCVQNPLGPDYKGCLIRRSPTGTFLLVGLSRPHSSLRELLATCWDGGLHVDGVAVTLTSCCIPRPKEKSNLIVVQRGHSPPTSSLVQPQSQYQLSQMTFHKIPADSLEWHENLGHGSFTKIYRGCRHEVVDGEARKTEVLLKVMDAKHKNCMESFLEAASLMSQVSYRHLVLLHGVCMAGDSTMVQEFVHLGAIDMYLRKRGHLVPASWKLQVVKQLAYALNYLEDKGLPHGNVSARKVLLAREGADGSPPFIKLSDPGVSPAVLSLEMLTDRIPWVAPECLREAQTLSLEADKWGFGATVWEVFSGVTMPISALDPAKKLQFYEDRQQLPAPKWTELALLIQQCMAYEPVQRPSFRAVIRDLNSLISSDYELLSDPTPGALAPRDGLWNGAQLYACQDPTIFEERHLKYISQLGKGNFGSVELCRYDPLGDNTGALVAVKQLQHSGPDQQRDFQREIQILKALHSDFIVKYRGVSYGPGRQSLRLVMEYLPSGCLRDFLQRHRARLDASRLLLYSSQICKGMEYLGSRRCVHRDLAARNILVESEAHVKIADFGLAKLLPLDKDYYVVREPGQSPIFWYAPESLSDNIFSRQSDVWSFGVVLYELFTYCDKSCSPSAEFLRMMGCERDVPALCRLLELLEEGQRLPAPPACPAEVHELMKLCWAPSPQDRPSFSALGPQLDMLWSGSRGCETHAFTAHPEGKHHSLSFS
Assay: LanthaScreen JAK biochemical assay, JAK3
Conditions: read-out: JAK 3 (pKi) (converted)
REPORTED_METRIC: Ki

[[record]]
smiles_string = "COc1cc(Nc2cc(CO)[nH]n2)nc(N(C)[C@@H]2C[C@H]3CCC[C@@H](C2)N3S(C)(=O)=O)n1"
result = "1 to 10 nM"

[[record]]
smiles_string = "COc1cc(Nc2cc(CO)[nH]n2)nc(N(C)[C@@H]2C[C@H]3CC[C@@H](C2)N3CCC#N)n1"
result = "10 to 31.6 nM"

[[record]]
smiles_string = "COCCS(=O)(=O)N1[C@@H]2CCC[C@H]1C[C@H](N(C)c1nc(Nc3cc(CO)[nH]n3)cc(OC)n1)C2"
result = "1 to 10 nM"

[[record]]
smiles_string = "COc1cc(Nc2cc(CO)[nH]n2)nc(N(C)[C@@H]2C[C@H]3CCC[C@@H](C2)N3C(=O)OCC(C)C)n1"
result = "1 to 10 nM"


FYI, the data here is from patent US10028960B2.
